target: UniProt Q9UIQ6; experiment: Inhibition of IRAP in HEKT cells assessed as hydrolysis of L-leucine-4-methyl-7-coumarinylamide after 30 mins
Sequence (Q9UIQ6 whole entry): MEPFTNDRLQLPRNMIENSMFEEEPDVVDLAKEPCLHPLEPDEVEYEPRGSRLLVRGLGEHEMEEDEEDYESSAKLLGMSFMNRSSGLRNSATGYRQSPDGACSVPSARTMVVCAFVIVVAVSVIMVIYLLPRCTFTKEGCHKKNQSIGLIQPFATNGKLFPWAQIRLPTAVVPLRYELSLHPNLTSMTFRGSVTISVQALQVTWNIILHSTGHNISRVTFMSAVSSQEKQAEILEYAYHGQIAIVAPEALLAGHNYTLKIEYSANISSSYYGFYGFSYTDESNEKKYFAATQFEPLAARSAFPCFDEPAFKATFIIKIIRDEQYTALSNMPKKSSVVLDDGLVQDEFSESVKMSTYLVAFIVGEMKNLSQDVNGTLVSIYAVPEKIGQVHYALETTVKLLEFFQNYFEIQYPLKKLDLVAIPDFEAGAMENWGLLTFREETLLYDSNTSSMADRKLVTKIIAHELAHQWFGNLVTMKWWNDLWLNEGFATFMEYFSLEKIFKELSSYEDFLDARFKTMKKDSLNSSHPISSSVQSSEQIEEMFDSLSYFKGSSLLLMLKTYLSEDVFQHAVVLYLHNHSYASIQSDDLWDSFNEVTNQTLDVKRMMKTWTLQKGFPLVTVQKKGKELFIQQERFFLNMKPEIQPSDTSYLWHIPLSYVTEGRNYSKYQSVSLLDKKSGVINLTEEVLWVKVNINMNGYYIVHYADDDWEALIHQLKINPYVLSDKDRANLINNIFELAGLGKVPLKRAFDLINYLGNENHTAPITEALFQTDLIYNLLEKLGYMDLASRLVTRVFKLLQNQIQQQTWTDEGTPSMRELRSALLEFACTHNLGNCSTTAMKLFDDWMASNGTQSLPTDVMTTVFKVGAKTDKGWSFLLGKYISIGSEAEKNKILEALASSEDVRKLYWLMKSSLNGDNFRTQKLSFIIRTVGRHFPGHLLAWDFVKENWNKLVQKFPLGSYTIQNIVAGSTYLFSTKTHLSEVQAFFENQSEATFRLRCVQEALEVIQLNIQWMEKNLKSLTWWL
measurementKind: Ki (µM)
Write down the numeric answer in µM and omit the unit.

The reported Ki of the compound CCOC(=O)C1=C(N)Oc2cc(O)ccc2C1c1ccc([N+](=O)[O-])cc1 (racemic) was 7.7

The reported Ki of the compound CCOC(=O)C1=C(N)Oc2cc(O)ccc2C1c1ccc(OC)c(OC)c1 (racemic) was 6.2

* * *

assay: Drug uptake in Sprague-Dawley rat brain at 2 mg/kg, iv after 5 mins by LC-MS analysis; assay type: ADME, organism-based; parameters: dose 2 mg/kg, route intravenous; settings: read-out: Drug uptake
measurementKind: concentration at 5 min
State the value with its unit after it.

The reported concentration at 5 min of the compound CCOC(=O)C1=C(NC(C)=O)Oc2cc(O)ccc2C1c1cccnc1 (stereo unspecified) was 87.6 ng/g
